These data points were gathered from ChEMBL document CHEMBL3997794.

- Test system: Protein deacetylase HDAC6 (Homo sapiens)
- Assay setup: at 30 µM
- Description: Inhibition of human KDAC6 at 30 uM using FITC-labeled histone H4 acetylated peptide as substrate after 60 mins by fluorescence assay relative to control
Measured property: inhibition (%)

>>> measured_result("C[C@@H]1N=C(c2ccccc2)c2ccccc2NC1=O")
0
>>> measured_result("O=C(C[C@H]1N=C(c2ccccc2)c2ccccc2NC1=O)NO")
0
>>> measured_result("N=C(N)NCCC[C@@H]1N=C(c2ccccc2)c2ccccc2N(CCCCC(=O)NO)C1=O")
91.2
>>> measured_result("O=C(O)C[C@@H]1N=C(c2ccccc2)c2ccccc2NC1=O")
0
>>> measured_result("C[C@H](OCc1ccccc1)[C@@H]1N=C(c2ccccc2)c2ccccc2N(CCCCC(=O)O)C1=O")
0
>>> measured_result("Cc1c(C)c(S(=O)(=O)NC(=N)NCCC[C@@H]2N=C(c3ccccc3)c3ccccc3NC2=O)c(C)c2c1OC(C)(C)C2")
0
>>> measured_result("O=C(CC[C@@H]1N=C(c2ccccc2)c2ccccc2NC1=O)NO")
36.5
>>> measured_result("CC(C)(C)SC[C@H]1N=C(c2ccccc2)c2ccccc2N(CCCCC(=O)O)C1=O")
2.08
>>> measured_result("COC(=O)CCCCN1C(=O)[C@H](CC(=O)OC(C)(C)C)N=C(c2ccccc2)c2ccccc21")
0

====

- Test system: Protein deacetylase HDAC6 (Homo sapiens)
- Sequence (Q9UBN7 whole entry): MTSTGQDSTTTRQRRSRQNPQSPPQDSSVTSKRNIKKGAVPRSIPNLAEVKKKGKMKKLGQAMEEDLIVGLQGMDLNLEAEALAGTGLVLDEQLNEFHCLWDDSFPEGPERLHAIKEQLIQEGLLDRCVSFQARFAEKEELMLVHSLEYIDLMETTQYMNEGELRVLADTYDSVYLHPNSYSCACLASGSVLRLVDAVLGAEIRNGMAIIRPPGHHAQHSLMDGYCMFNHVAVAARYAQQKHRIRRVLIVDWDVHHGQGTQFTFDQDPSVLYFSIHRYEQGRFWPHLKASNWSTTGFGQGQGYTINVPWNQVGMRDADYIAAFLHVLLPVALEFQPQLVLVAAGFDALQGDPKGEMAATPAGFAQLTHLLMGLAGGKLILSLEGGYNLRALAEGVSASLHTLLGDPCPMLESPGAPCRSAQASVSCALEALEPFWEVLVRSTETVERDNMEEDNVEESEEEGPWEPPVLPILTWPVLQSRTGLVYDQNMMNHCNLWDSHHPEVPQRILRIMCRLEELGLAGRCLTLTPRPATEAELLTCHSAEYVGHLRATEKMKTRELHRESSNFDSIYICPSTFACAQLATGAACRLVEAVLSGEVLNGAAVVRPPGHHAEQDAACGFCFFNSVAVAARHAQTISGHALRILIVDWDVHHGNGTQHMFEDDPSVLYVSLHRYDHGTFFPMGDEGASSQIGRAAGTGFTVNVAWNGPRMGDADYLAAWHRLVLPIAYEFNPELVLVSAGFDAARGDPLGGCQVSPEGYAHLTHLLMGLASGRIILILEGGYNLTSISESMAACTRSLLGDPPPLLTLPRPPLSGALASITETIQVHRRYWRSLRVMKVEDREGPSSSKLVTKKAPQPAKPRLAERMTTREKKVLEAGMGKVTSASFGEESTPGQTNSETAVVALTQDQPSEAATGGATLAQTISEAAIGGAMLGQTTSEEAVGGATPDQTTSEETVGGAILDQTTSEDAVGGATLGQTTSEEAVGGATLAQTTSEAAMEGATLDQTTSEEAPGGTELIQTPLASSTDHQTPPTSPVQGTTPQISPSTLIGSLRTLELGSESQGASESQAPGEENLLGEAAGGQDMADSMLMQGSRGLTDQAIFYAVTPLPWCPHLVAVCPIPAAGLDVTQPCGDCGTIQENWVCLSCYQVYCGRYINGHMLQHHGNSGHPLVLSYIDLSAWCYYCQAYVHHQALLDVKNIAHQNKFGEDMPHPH
pIC50: −log10 of the molar value.
pIC50 values for the compounds below.
Measured property: pIC50

>>> measured_result("CSCC[C@@H]1N=C(c2ccccc2)c2ccccc2N(CCCCC(=O)NO)C1=O")
5.77
>>> measured_result("O=C(CCCNC(=O)CC[C@@H]1N=C(c2ccccc2)c2ccccc2NC1=O)NO")
5.15
>>> measured_result("CC(C)C[C@@H]1N=C(c2ccccc2)c2ccccc2N(CCCCC(=O)NO)C1=O")
5.63
>>> measured_result("C[C@@H]1N=C(c2ccccc2)c2ccccc2N(CCCCC(=O)NO)C1=O")
5.53
>>> measured_result("CC(C)[C@@H]1N=C(c2ccccc2)c2ccccc2N(CCCCC(=O)NO)C1=O")
5.87
>>> measured_result("NC(=O)CC[C@@H]1N=C(c2ccccc2)c2ccccc2N(CCCCC(=O)NO)C1=O")
5.89
>>> measured_result("CC(C)(C)OC[C@@H]1N=C(c2ccccc2)c2ccccc2N(CCCCC(=O)NO)C1=O")
5.30
>>> measured_result("NC(=O)C[C@@H]1N=C(c2ccccc2)c2ccccc2N(CCCCC(=O)NO)C1=O")
5.27
>>> measured_result("CC[C@@H](C)[C@@H]1N=C(c2ccccc2)c2ccccc2N(CCCCC(=O)NO)C1=O")
5.43

====

Reported values of inhibition for individual entries
- Test system: UniProtKB Q9BY41
- Sequence (Q9BY41 whole entry): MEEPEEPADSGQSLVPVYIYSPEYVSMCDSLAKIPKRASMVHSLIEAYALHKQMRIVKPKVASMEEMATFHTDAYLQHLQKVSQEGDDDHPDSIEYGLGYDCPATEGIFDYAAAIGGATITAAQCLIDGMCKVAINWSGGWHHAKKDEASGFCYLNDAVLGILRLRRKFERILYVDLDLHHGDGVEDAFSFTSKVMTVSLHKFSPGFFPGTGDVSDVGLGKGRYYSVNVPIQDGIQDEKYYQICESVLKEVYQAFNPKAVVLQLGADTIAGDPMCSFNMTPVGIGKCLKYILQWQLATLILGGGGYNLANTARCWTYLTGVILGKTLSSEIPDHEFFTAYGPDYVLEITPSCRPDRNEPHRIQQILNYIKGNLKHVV
- Measurement description: Inhibition of human KDAC8 at 30 uM after 60 mins by fluorescence assay relative to control
Measured property: inhibition

>>> measured_result("COC(=O)CCCCN1C(=O)[C@H](Cc2ccccc2)N=C(c2ccccc2)c2ccccc21")
"0%"
>>> measured_result("CC(C)(C)OC[C@@H]1N=C(c2ccccc2)c2ccccc2N(CCCCC(=O)O)C1=O")
"5.87%"
>>> measured_result("CC(C)(C)OC(=O)CC[C@@H]1N=C(c2ccccc2)c2ccccc2N(CCCCC(=O)O)C1=O")
"9.85%"
>>> measured_result("CC(C)(C)OC(=O)NCCCC[C@@H]1N=C(c2ccccc2)c2ccccc2N(CCCCC(=O)NO)C1=O")
"56%"
>>> measured_result("CC(C)C[C@@H]1N=C(c2ccccc2)c2ccccc2N(CCCCC(=O)NO)C1=O")
"45.2%"
>>> measured_result("CSCC[C@@H]1N=C(c2ccccc2)c2ccccc2N(CCCCC(=O)NO)C1=O")
"57.7%"
>>> measured_result("O=C(O)CC[C@@H]1N=C(c2ccccc2)c2ccccc2N(CCCCC(=O)NO)C1=O")
"29.7%"
>>> measured_result("CSCC[C@@H]1N=C(c2ccccc2)c2ccccc2NC1=O")
"9.07%"
>>> measured_result("C[C@@H]1N=C(c2ccccc2)c2ccccc2N(CCCCC(=O)NO)C1=O")
"53.8%"

====

Measured pIC50 values are reported for all entries that follow.
- Test system: Histone deacetylase 3 (Homo sapiens)
- Sequence (O15379 whole entry): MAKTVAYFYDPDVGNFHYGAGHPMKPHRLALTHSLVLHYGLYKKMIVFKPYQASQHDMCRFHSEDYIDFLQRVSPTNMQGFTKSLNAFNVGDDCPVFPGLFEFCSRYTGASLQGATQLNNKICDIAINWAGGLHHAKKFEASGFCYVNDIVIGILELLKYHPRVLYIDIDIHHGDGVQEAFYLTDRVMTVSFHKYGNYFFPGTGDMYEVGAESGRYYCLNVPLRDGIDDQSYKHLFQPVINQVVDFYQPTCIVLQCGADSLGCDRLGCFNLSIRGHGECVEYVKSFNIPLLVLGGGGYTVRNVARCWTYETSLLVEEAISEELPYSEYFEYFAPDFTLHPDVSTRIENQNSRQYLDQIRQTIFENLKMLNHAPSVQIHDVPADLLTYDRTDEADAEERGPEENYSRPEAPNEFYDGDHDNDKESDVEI
pIC50: −log10 of the molar value.
Measured property: pIC50

>>> measured_result("O=C(CCCCN1C(=O)[C@H](CO)N=C(c2ccccc2)c2ccccc21)NO")
5.31
>>> measured_result("CC(C)(C)OC(=O)n1c(C[C@@H]2N=C(c3ccccc3)c3ccccc3N(CCCCC(=O)NO)C2=O)cc2ccccc21")
5.28

====

- Test system: Protein deacetylase HDAC6 (Homo sapiens) (UniProt Q9UBN7)
- Assay setup: at 30 µM
Catalogue of inhibition values
Measured property: inhibition (%)

>>> measured_result("C[C@@H](OCc1ccccc1)[C@@H]1N=C(c2ccccc2)c2ccccc2N(CCCCC(=O)NO)C1=O")
98.1
>>> measured_result("CC(C)(C)Oc1ccc(C[C@@H]2N=C(c3ccccc3)c3ccccc3NC2=O)cc1")
0
>>> measured_result("Cc1c(C)c(S(=O)(=O)NC(=N)NCCC[C@@H]2N=C(c3ccccc3)c3ccccc3N(CCCCC(=O)NO)C2=O)c(C)c2c1OC(C)(C)C2")
70.2
>>> measured_result("COC(=O)CCCCN1C(=O)[C@H](Cc2cc3ccccc3n2C(=O)OC(C)(C)C)N=C(c2ccccc2)c2ccccc21")
0
>>> measured_result("CC(C)(C)OC(=O)C[C@@H]1N=C(c2ccccc2)c2ccccc2N(CCCCC(=O)O)C1=O")
0
>>> measured_result("CC(C)[C@@H]1N=C(c2ccccc2)c2ccccc2NC1=O")
3.25
>>> measured_result("CC(C)(C)OC(=O)CC[C@@H]1N=C(c2ccccc2)c2ccccc2N(CCCCC(=O)NO)C1=O")
93.7
>>> measured_result("O=C(CCCCN1C(=O)[C@H](Cc2cnc[nH]2)N=C(c2ccccc2)c2ccccc21)NO")
84.6

====

- Test system: Histone deacetylase 1 (Homo sapiens, UniProt Q13547)
- Sequence (Q13547 whole entry): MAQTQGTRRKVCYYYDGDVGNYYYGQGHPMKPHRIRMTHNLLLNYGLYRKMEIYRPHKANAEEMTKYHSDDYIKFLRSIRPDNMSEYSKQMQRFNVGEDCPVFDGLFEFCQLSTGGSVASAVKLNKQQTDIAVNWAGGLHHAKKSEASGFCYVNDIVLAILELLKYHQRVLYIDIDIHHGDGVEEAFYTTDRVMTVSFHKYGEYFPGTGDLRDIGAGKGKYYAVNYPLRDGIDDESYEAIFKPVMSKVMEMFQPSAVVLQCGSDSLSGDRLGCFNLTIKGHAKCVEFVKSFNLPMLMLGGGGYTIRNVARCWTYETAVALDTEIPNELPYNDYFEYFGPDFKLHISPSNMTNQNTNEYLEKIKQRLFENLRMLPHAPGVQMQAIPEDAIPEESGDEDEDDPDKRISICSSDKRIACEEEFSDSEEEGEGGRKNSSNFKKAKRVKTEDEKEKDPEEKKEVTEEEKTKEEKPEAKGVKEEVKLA
- Measurement description: Inhibition of human KDAC1 at 30 uM using substrate A after 60 mins by fluorescence assay relative to control
Measured property: inhibition (%)

>>> measured_result("CC(C)(C)OC(=O)CC[C@H]1N=C(c2ccccc2)c2ccccc2NC1=O")
10.5
>>> measured_result("O=C(O)CCCCN1C(=O)[C@H](Cc2ccccc2)N=C(c2ccccc2)c2ccccc21")
11.9
>>> measured_result("CC(C)(C)OC(=O)n1cc(C[C@@H]2N=C(c3ccccc3)c3ccccc3NC2=O)c2ccccc21")
6.47
>>> measured_result("CC(C)(C)OC(=O)NCCCC[C@@H]1N=C(c2ccccc2)c2ccccc2NC1=O")
2.97
>>> measured_result("O=C1Nc2ccccc2C(c2ccccc2)=N[C@H]1Cc1ccccc1")
0.91
>>> measured_result("O=C(CC[C@@H]1N=C(c2ccccc2)c2ccccc2NC1=O)NC(c1ccccc1)(c1ccccc1)c1ccccc1")
7.59
>>> measured_result("O=C(CCCCN1C(=O)[C@H](CC(=O)NO)N=C(c2ccccc2)c2ccccc21)NO")
74.7
>>> measured_result("O=C1Nc2ccccc2C(c2ccccc2)=N[C@H]1Cc1cn(C(c2ccccc2)(c2ccccc2)c2ccccc2)cn1")
8.26
